Parameter Ratio/Fc-H: see the listing below.
molecular target: T1, FcRn-p3 fusion protein (human, UniProt P55899 24-297; P61769 21-119); assay: phage ELISA pH6
T1 construct: baculovirus expressed; coated on ELISA wells; not shown: amino terminal part of bacteriophage p3 protein and CVDE protein
T1 sequence (P55899 24-297, chain 1 of 2): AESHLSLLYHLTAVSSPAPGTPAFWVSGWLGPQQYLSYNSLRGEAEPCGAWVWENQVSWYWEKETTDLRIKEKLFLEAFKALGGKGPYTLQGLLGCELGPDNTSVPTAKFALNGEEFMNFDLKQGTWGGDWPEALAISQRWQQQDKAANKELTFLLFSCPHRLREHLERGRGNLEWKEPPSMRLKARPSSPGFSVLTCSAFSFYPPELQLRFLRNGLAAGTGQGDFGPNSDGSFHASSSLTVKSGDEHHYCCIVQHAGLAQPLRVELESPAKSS
T1 sequence (P61769 21-119, chain 2 of 2): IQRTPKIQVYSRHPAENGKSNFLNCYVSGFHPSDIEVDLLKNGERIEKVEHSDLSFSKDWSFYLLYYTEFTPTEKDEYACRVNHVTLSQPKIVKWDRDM
Express it in fold; write the number only.

Q: I am curious: what Ratio/Fc-H value has been reported for M3A_12 (other, EU numbering) CPPCPAPELLGGPSVFLFPPKPKDTLMISRTPEVTCVVVDVSHEDPEVKFNWYVDGVEVHNAKTKPREEQYNSTYRVVSVLTVLHQDWLDGKEYKCKVSNKALPAPIEKTISKAKGQPREPQVYTLPPSRDELTKNRVSLTCLVKGFYPSDIAVEWESNGQPENNYKTTPPVLDSDGSFFLYSKLTVDKSRWQQGDVFSCSVMHEALHSHYTQKSLSLSPGK ?
Result: 1.1

Q: Also, C3A_42 (other, EU numbering) CPPCPAPELLGGPSVFLFPPKPKDTLMISRTPEVTCVVVDVSHEDPEVKFNWYVDGVEVHNAKTKPREEQYNSTYRVVSVLTVLHQDWLDGKEYKCKVSNKALPVPIEKTISKAKGQPREPQVYTLPPSRDELTKNQVSLTCLVKGFYPSDIAVEWESNGQPEKNYKTTPPMLDSDGSFFLYSKLTVDKSRWQQGNVFSCSVMHEALHYHYTQKSLSLSPGK please.
Result: 3.7

Q: Also, T3A_13 (other, EU numbering) CPPCPAPELLGGPSVFLFPPKPKDTLMISRTPEVTCVVVDVSHEDPEVKFNWYVDGVEVHNAKTKPREEQYNSTYRVVSVLTVLHQDWLDGKEYKCKVSNKALPAPIEKTISKAKGQPREPQVYTLPPSRDELTKNQVSLTCLAKGFYPSDIAVEWESNGQPENNYKTTPPVLDSDGSFFLYSKLTVDKSRWQQGNVFSCSVMHEALHYHYTQKSLSLSPGK please.
Result: 1.8
